// data source = the supplement of paper PMC9170038

Test system: MS2 coat protein
Test: apparent KD of MS2 coat protein; designed switch direction (-1 OFF switch, 1 ON switch): -1; higher = weaker reporter binding
Settings: input ligand: FMN 200 uM
Mark f for apparent KD of MS2 coat protein values under 50 nM, and t for everything at or above.

Worked cases, answers included:
sequencechain="UGAUUGUUUACCAGAUUAUACAUGAGGAUCACCCAUGUAGAUCCUACGUGCACGUUAUACAGCUCGUCUUAUUCCCA [Sensor-V1 #74] (Eterna round: R97, puzzle: Sensor, turn-off variant 1)" classlabel=f
sequencechain="GGCCGUAAUAAGGAUAUCACUAGCCUCGGCUAGUGAGAAGGUAUUACAUGAGGAUCACCCAUGUGAUCAGGCCA [E6/3-B2] (Eterna round: R97, puzzle: Exclusion 6)" classlabel=t
sequencechain="ACAUGAGGAUCACCCAUGUACAGGGUUUAGUUUCAUCGUUUGAAGGAUAUACUCCGUUAGUUGUCGUAGAAGGUCACAUUUUGG [JR_ExcNG3_Sub006] (Eterna round: R96, puzzle: Exclusion NG 3)" classlabel=t

Task item: Check if apparent KD of MS2 coat protein >= 50 nM (inclusive). Item: UAACUUCUUGUAAGGAUAUUGGCGCGAAAGCGCACCGAGAAGGUACAUGAGGAUCACCCAUGUGAAAUAAGAAU [Mod of Zala 13 - Jieux - Brourd's Mod of Exclusion 4] (Eterna round: R97, puzzle: Brourd's mod of Exclusion 4)
Reply: f

Task item: Textbook exercise: given the entry AUUACGUCAGGAUAUGCGUGUUAGACAUGUUUAACCUAAGAACAUGAGGAUCACCCAUGUAGAAGGGACGCUCA [Eternabot (L1) Solution 78] (Eterna round: R97, puzzle: Exclusion 2) , state whether its apparent KD of MS2 coat protein is greater than or equal to 50 nM.
Reply: t

Task item: Please indicate if the recorded apparent KD of MS2 coat protein for UGUUGUUACGCAGGAUAUCCACCAACAGGUGGAAGGAUAUGUACGCAGAAGGUUCGCCAACAGGCGGAGAAGGGCGGGUUAACA [pwkr exNG2 2xF7 2xFMN.26] (Eterna round: R96, puzzle: Exclusion NG 2) meets or exceeds 50 nM.
Reply: t

Task item: Does the reported apparent KD of MS2 coat protein for ACAAGCUCUUUGCAACUUAGUUUUGUUGCUUCGUAGGUAACAUGAGGAUCACCCAUGUAAGACUGAUGUCGUCUUAU [JR_SV3TOV2_Sub086] (Eterna round: R96, puzzle: Sensor v3, turn-off variant 2) fall at or above the 50 nM mark?
Reply: f

Task item: Assess whether reported apparent KD of MS2 coat protein for GCGAUAACCGAGGAUAUCGGUGAUAGAGAUAAUUGAGAAGGCGGUACAUGAGGAUCACCCAUGUAUACGUGGGC [Eternabot (L2) Solution 87] (Eterna round: R97, puzzle: Exclusion 6) sits at 50 nM or higher.
Reply: f

Task item: Could you verify whether the entry GCAGCAACUCUAAUCAAACCAACAUGAGGAUCACCCAUGUCUCAGGAUAUGGUCUGGAUUACAGGCCAGAAGGGAGAAAGCUGC [Eli exng3 - 047] (Eterna round: R96, puzzle: Exclusion NG 3) shows apparent KD of MS2 coat protein of no less than 50 nM?
Reply: f

Task item: API: above_or_equal(metric=apparent KD of MS2 coat protein, cutoff=50 nM) for item AGCUUUGCUGCUCGUCCCAACAUGAGGAUCACCCAUGUUCUUAUGAAACCAUCUAGCCUAGAUGGGUCUUGCCAAAG [Eternabot (Original) Solution 47] (Eterna round: R97, puzzle: Sensor, turn-off variant 1)
Reply: f

Task item: # bool: apparent KD of MS2 coat protein of CCUUGACAUGAGGAUCACCCAUGUGAGGAUAUAGAAUACAUCAUACACUGACCUCCUUCUAGAAGGCACAUCUC [1986#2] (Eterna round: R97, puzzle: Exclusion 1) >= 50 nM
Reply: f

Task item: In plain terms: is recorded apparent KD of MS2 coat protein at least 50 nM for GAAGGACGAGGAUAUGUAUGGGACAGCCGAGGAAAAUCUCAACAUGAGGAUCACCCAUGUAGAAGGCGUGCCCG [Eternabot (Original) Solution 44] (Eterna round: R97, puzzle: Exclusion 2) ?
Reply: f

Task item: In plain terms: is recorded apparent KD of MS2 coat protein at least 50 nM for UAUUAGCAAGUGAGAUCCCACAUGAGGAUCACCCAUGUGCUCGUCUUAUAACGUACUGUGACGAAAGUCACGGUACG [Sensor-V1 #81] (Eterna round: R97, puzzle: Sensor, turn-off variant 1) ?
Reply: t
